// data source = patent US4696920A

Below: a set of entries, each annotated with reported Bound ^3 H at 1.0 μM / Bound ^3 H at 0.1 μM.
- Test system: [^3 H]-PN-200 110 (dihydropyridine) binding site of calcium channel, rat brain membranes
- Method summary: [^3 H]-PN-200 110 binding to rat brain membranes
- Design: species or system rat (male Wistar)
- Applied conditions: ratio of [^3 H]-PN-200 110 bound at 1.0 and 0.1 μM compound; Table 1b
Metric: Bound ^3 H at 1.0 μM / Bound ^3 H at 0.1 μM

C=CCCOP(=O)(CC(CCOc1ccccc1)CP(=O)(OCCC=C)OCCC=C)OCCC=C [Compound 110]; 0.294
CCCCOP(=O)(CC(Cc1cnc(C)c(O)c1CO)CP(=O)(OCCCC)OCCCC)OCCCC [Compound 102]; 0.925
CCCCOP(=O)(CC(CCOc1ccc(-c2ccccc2)cc1)CP(=O)(OCCCC)OCCCC)OCCCC [Compound 100]; 0.504
CCCCOP(=O)(CC(CCOc1ccccc1)CP(=O)(OCCCC)OCCCC)OCCCC [Compound 79]; 0.211
CCCCOP(=O)(CC(Cc1cc2c(cc1Cl)OCO2)CP(=O)(OCCCC)OCCCC)OCCCC [Compound 99]; 0.627
CCCCOP(=O)(CC(Cc1ccc(CN2CCN(c3ccccc3)CC2)cc1)CP(=O)(OCCCC)OCCCC)OCCCC [Compound 104]; 0.687
CCCCOP(=O)(CC(Cc1cnc(C)c2c1COC(C)(C)O2)CP(=O)(OCCCC)OCCCC)OCCCC [Compound 101]; 0.527
CCCCOP(=O)(CC(CCOc1ccc(Br)cc1)CP(=O)(OCCCC)OCCCC)OCCCC [Compound 91]; 0.420
CCCOP(=O)(CC(CCOc1ccccc1)CP(=O)(OCCC)OCCC)OCCC [Compound 52]; 0.227
CCCCOP(=O)(CC(CCCC1(C)OCCO1)CP(=O)(OCCCC)OCCCC)OCCCC [Compound 106]; 0.570
CCCCOP(=O)(CC(CCOc1ccc(F)cc1)CP(=O)(OCCCC)OCCCC)OCCCC [Compound 89]; 0.310
CCCCOP(=O)(CC(CCOc1ccc(OC)cc1)CP(=O)(OCCCC)OCCCC)OCCCC [Compound 92]; 0.000
CCCCOP(=O)(CC(CCCc1ccc([N+](=O)[O-])cc1[N+](=O)[O-])CP(=O)(OCCCC)OCCCC)OCCCC [Compound 98]; 0.780
CCCCOP(=O)(CC(CCOc1ccc(Cl)cc1)CP(=O)(OCCCC)OCCCC)OCCCC [Compound 90]; 0.243
CCCCOP(=O)(CC(CCOc1cc(C)ccc1C)CP(=O)(OCCCC)OCCCC)OCCCC [Compound 77]; 0.337
CCCCOP(=O)(CC(CCOc1cccc(C(F)(F)F)c1)CP(=O)(OCCCC)OCCCC)OCCCC [Compound 93]; 0.000
